Where these numbers come from: ChEMBL document CHEMBL4118281

Test system: Aspergillus flavus
PROTOCOL_TEXT: Antifungal activity against Aspergillus flavus after 24 hrs by two fold serial dilution based spectrophotometric analysis
Type: functional
Decide using MIC alone. Strictly below 20 µg/mL: True. Equal to or above 20 µg/mL: False.

The following compounds have reported results that may help.
| SMILES_TEXT | LABEL_VALUE |
| --- | --- |
| c1ccc(-c2nc3sc4ccccc4n3c2COCCCCCn2cncn2)cc1 | True |
| c1ccc(-c2nc3sc4ccccc4n3c2COCCCn2cncn2)cc1 | True |
| c1ccc(-c2nc3sc4ccccc4n3c2COCCCCCCCCCCn2cncn2)cc1 | True |
| CCOc1ccc2c(c1)sc1nc(-c3ccccc3)c(COCCCCCn3cnc([N+](=O)[O-])c3)n12 | False |
| CCOc1ccc2c(c1)sc1nc(-c3ccccc3)c(COCCCCCn3cncn3)n12 | False |
| CCOc1ccc2c(c1)sc1nc(-c3ccccc3)c(COCCCCCCCCCCn3cnc([N+](=O)[O-])c3)n12 | False |

Continue with the compound presented below.
Consider O=[N+]([O-])c1cn(CCCCCOCc2c(-c3ccccc3)nc3sc4ccccc4n23)cn1 . Does its MIC lie strictly below 20 µg/mL?
False
